Reported half-life by item:
assay: Mouse PK study (i.v. and p.o.); format: in vivo; details: plasma, iv, male CD1 mice, 1 mg/kg i.v., read-out: T1/2 (hr) i.v. (converted)
Please state the value followed by its unit.

Consider the compound C[C@@]1(O)CC[C@H]2[C@H](CC[C@@H]3[C@@H]2CC[C@]2(C)[C@@H](C(=O)Cn4nnn(-c5ccn[nH]5)c4=O)CC[C@@H]32)C1 [Example 25] and give its recorded half-life. 4.63 h

Look up half-life of C[C@@]1(O)CC[C@H]2[C@H](CC[C@@H]3[C@@H]2CC[C@]2(C)[C@@H](C(=O)Cn4nnn(-c5ccccc5)c4=O)CC[C@@H]32)C1 [Example 10] and report it. 4.22 h

Give half-life for the following compound: C[C@@]1(O)CC[C@H]2[C@H](CC[C@@H]3[C@@H]2CC[C@]2(C)[C@@H](C(=O)Cn4nnn(-c5cn[nH]c5)c4=O)CC[C@@H]32)C1 [Example 28] 6.12 h

Provide half-life value for the following compound: C[C@@]1(O)CC[C@H]2[C@H](CC[C@@H]3[C@@H]2CC[C@]2(C)[C@@H](C(=O)Cn4nnn(-c5cccc(C#N)c5)c4=O)CC[C@@H]32)C1 [Example 14] 1.44 h

Others:
Tell me half-life reported for C[C@@]1(O)CC[C@H]2[C@H](CC[C@@H]3[C@@H]2CC[C@]2(C)[C@@H](C(=O)Cn4nnn(CC5CC5)c4=O)CC[C@@H]32)C1 [Example 7] 0.6 h

----------
Reported values of Cmax for individual entries
test: Mouse PK study (i.v. and p.o.); format: in vivo; conditions: plasma, po, male CD1 mice, 5 mg/kg p.o.
Respond with a number, then the unit of measure.

Solved entries (count: 3):
Assign Cmax to the following record: `C[C@@]1(O)CC[C@H]2[C@H](CC[C@@H]3[C@@H]2CC[C@]2(C)[C@@H](C(=O)Cn4nnn(CC5CC5)c4=O)CC[C@@H]32)C1` 186 ng/mL

For `Cn1nnn(CC(=O)[C@H]2CC[C@H]3[C@@H]4CC[C@@H]5C[C@](C)(O)CC[C@@H]5[C@H]4CC[C@]23C)c1=O` , write its Cmax. 1380 ng/mL

# return recorded Cmax for entry `C[C@@]1(O)CC[C@H]2[C@H](CC[C@@H]3[C@@H]2CC[C@]2(C)[C@@H](C(=O)Cn4nnn(-c5cccc(C#N)c5)c4=O)CC[C@@H]32)C1` 250 ng/mL

More entries:
Identify measured Cmax corresponding to `C[C@@]1(O)CC[C@H]2[C@H](CC[C@@H]3[C@@H]2CC[C@]2(C)[C@@H](C(=O)Cn4nnn(-c5ccn[nH]5)c4=O)CC[C@@H]32)C1` 1190 ng/mL

Recall and state the measured Cmax for `C[C@@]1(O)CC[C@H]2[C@H](CC[C@@H]3[C@@H]2CC[C@]2(C)[C@@H](C(=O)Cn4nnn(-c5cocn5)c4=O)CC[C@@H]32)C1` . 775 ng/mL

Check the records and state Cmax for `C[C@@]1(O)CC[C@H]2[C@H](CC[C@@H]3[C@@H]2CC[C@]2(C)[C@@H](C(=O)Cn4nnn(-c5ccc(C#N)cc5)c4=O)CC[C@@H]32)C1` 479 ng/mL

Give a short answer stating reported Cmax for `C[C@@]1(O)CC[C@H]2[C@H](CC[C@@H]3[C@@H]2CC[C@]2(C)[C@@H](C(=O)Cn4nnn(-c5ccncc5)c4=O)CC[C@@H]32)C1` . 227 ng/mL
